Experimental Protocol: shake flask on a mixture of 185; loss from the water phase only; LC-QTOF peak areas
Particulars: room
Property Measured: log partition n-undecane / HPLC water, unbuffered, traces of methanol / DMSO (log10)

>>> df
                  compound_structure_string  recorded_measurement
0     O=C(Nc1ccccc1-c1ccc(Cl)cc1)c1cccnc1Cl                 1.129
1  Cc1cc2c3c(c1)C(c1ccccc1)=N[C@@H](NC(=O)c1ccncc1)C(=O)N3CC2                -0.161
2  CCc1nn(C)c(C(=O)NCc2ccc(C(C)(C)C)cc2)c1Cl                 1.893
3       Cc1cc(C)nc(NS(=O)(=O)c2ccc(N)cc2)n1                -1.455
4  CCOc1ccc2[nH]cc(C(=O)NCc3ccccc3)c(=O)c2n1                -1.345

----------
Experimental Protocol: shake flask on a mixture of 185; loss from the water phase only; LC-QTOF peak areas
Particulars: room
log partition chloroform / HPLC water, unbuffered, traces of methanol / DMSO strictly under 2 log10 means Fulfilled; at 2 log10 or over means Not fulfilled.

>>> df
                                   compound  classification
0  CCNC(=O)C1CC(C)CCC1C(C)C (centres unmarked)       Fulfilled
1   Cn1cnc([N+](=O)[O-])c1Sc1ncnc2nc[nH]c12       Fulfilled
2                c1ccc2[nH]c(-c3cscn3)nc2c1       Fulfilled
3                 O=C(c1ccccc1)c1ccc(O)cc1O       Fulfilled
4          Cc1oncc1C(=O)Nc1ccc(C(F)(F)F)cc1   Not fulfilled
5     O=C(Nc1ccccc1-c1ccc(Cl)cc1)c1cccnc1Cl   Not fulfilled
6  CO/N=C(/C1=NOCCO1)c1ccccc1Oc1ncnc(Oc2ccccc2Cl)c1F   Not fulfilled
7            CN(C1CCCCC1)S(=O)(=O)c1ccccc1N       Fulfilled
8  COC(=O)C(C)N(C(=O)c1ccco1)c1c(C)cccc1C (centres unmarked)   Not fulfilled
9  CCCCOC(=O)C(C)Oc1ccc(Oc2ccc(C(F)(F)F)cn2)cc1 (centres unmarked)   Not fulfilled

----------
Experimental Protocol: shake flask on a mixture of 185; loss from the water phase only; LC-Orbitrap peak areas
Particulars: room
So basically: log partition oleylalcohol / HPLC water, unbuffered, traces of methanol / DMSO at 0.003 log10 or higher? That is YES. Lower than 0.003 log10? That is NO.

>>> print(df.to_string())
                                   compound  classification
0  CCCC1COC(Cn2cncn2)(c2ccc(Cl)cc2Cl)O1 (stereo not shown)             YES
1                         OCCN(CCO)c1ccccc1             YES
2                           CCCCc1ccc(O)cc1              NO
3            CN(C1CCCCC1)S(=O)(=O)c1ccccc1N             YES
4  CN/C(=N/[N+](=O)[O-])NCC1CCOC1 (stereo not shown)              NO
5  CCc1nn(C)c(C(=O)NCc2ccc(C(C)(C)C)cc2)c1Cl             YES
6  CC(C)C1(C)N=C(c2nc3ccccc3cc2C(=O)O)NC1=O (stereo not shown)              NO
